B1: CPEB3 Ribozyme (parent)
chain: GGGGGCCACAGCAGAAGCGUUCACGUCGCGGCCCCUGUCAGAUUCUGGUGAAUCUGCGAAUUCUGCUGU

# Variants of: B1
# experimentNotes: self-cleavage, relative activity (ratio to wild type); higher = more cleavage; co-transcriptional
Examples of variants with documented self-cleavage follow.
API doc: respond with a numeric literal and nothing else, no unit.

C12U U64A	0.697
U44G C66G	0.707

Here is the next item to consider.
Request: # get_value(readout='self-cleavage', item= A13U U38C )
Response: 0.704

Reference source: the RNAGym collection of RNA variant scans (doi:10.7554/elife.80360)
